Give measured self-splicing fitness (ln) for each item. Keep answers brief.
test: self-splicing fitness, log relative to wild type (ln ratio); higher = more splicing; Tetrahymena group I intron in knt gene, E. coli kanamycin selection, DiMSum; sequences stand for … in CUCUCU…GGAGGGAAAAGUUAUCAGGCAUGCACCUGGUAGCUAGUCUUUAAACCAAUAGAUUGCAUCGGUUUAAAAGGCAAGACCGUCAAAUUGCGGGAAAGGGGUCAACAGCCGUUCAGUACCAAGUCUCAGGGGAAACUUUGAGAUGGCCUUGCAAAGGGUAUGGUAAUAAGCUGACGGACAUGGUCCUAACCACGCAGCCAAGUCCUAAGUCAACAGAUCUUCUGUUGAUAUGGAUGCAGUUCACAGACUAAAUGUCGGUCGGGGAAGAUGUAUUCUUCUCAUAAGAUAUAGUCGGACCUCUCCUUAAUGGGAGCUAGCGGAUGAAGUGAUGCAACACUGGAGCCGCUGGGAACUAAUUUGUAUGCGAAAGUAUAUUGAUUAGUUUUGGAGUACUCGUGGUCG; settings: 30 °C;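 note: selection with 25 µg/mL kanamycin versus none on LB agar overnight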

Noted for GGGGAGCAAUAUUACGCUGG : its self-splicing fitness (ln) reads -2.98

self-splicing fitness (ln) recorded for this sequence, UGAAAGCAAUAUUACGCAAC , is -3.98

GET /value?item= ACCUAGCAAUAUUACGACCG &field=self-splicing fitness (ln) returns -1.16

The sequence listed as UUUCAGCAAUAUUACGGGAG has a reported self-splicing fitness (ln) of -0.794
